All figures here come from paper PMC8480901.

assay: Pharmacokinetics in plasma and epithelial lining fluid of mice after a single SC dose; format: in vivo, BALB/c mice; conditions: female, BALB/c, mouse, epithelial lining fluid (ELF); ELF; mice; single 35 mg/kg SC; read-out: Cmax, mean±SEM
observation_type: Cmax (ng/mL)
Express it in ng/mL; write the number only.

Query: I would be grateful if you could share the reported Cmax for CC[C@H]1OC(=O)[C@H](C)[C@@H](O[C@H]2C[C@@](C)(OC)[C@@H](O)[C@H](C)O2)[C@H](C)[C@@H](O[C@@H]2O[C@H](C)C[C@H](N(C)C)[C@H]2O)[C@](C)(O)C[C@@H](C)CN(C)[C@H](C)[C@@H](O)[C@]1(C)O .
Response: 2350

Query: Fill blank: measured Cmax of the compound C=C[C@]1(C)C[C@@H](OC(=O)CS[C@@H]2CC[C@@H](N)C[C@H]2O)[C@]2(C)[C@H](C)CC[C@]3(CCC(=O)[C@H]32)[C@@H](C)[C@@H]1O is ____.
Response: 2160

###

Could you please report measured Tmax for the items listed next?
experiment: Pharmacokinetics in plasma and epithelial lining fluid of mice after a single SC dose; assay type: in vivo, BALB/c mice; conditions: female, BALB/c, mouse; plasma; mice; single 35 mg/kg SC
Quick note: give the figure in min, leave out the unit.

Query: Using the record for CC[C@H]1OC(=O)[C@H](C)[C@@H](O[C@H]2C[C@@](C)(OC)[C@@H](O)[C@H](C)O2)[C@H](C)[C@@H](O[C@@H]2O[C@H](C)C[C@H](N(C)C)[C@H]2O)[C@](C)(O)C[C@@H](C)CN(C)[C@H](C)[C@@H](O)[C@]1(C)O [Azithromycin] , report its Tmax.
Response: 4.8

Query: Entry C=C[C@]1(C)C[C@@H](OC(=O)CS[C@@H]2CC[C@@H](N)C[C@H]2O)[C@]2(C)[C@H](C)CC[C@]3(CCC(=O)[C@H]32)[C@@H](C)[C@@H]1O [Lefamulin] : reported Tmax = ?
Response: 30

###

assay: Pharmacokinetics in plasma and epithelial lining fluid of mice after a single SC dose; type: in vivo, BALB/c mice; settings: female, BALB/c, mouse; plasma; mice; single 35 mg/kg SC; read-out: Cmax, mean±SEM
observation_type: Cmax (ng/mL)
Numbers only; they are read as ng/mL.

Query: # Cmax lookup, item CC[C@H]1OC(=O)[C@H](C)[C@@H](O[C@H]2C[C@@](C)(OC)[C@@H](O)[C@H](C)O2)[C@H](C)[C@@H](O[C@@H]2O[C@H](C)C[C@H](N(C)C)[C@H]2O)[C@](C)(O)C[C@@H](C)CN(C)[C@H](C)[C@@H](O)[C@]1(C)O
Response: 2330

Query: Bench note: what Cmax did C=C[C@]1(C)C[C@@H](OC(=O)CS[C@@H]2CC[C@@H](N)C[C@H]2O)[C@]2(C)[C@H](C)CC[C@]3(CCC(=O)[C@H]32)[C@@H](C)[C@@H]1O show?
Response: 1330

###

test: Pharmacokinetics in plasma and epithelial lining fluid of mice after a single SC dose; type: in vivo, BALB/c mice; conditions: female, BALB/c, mouse, epithelial lining fluid (ELF); ELF; mice; single 35 mg/kg SC
observation_type: Tmax (min)
The reply should be a number in min, with the unit left off.

Query: Quick one: Tmax of CC[C@H]1OC(=O)[C@H](C)[C@@H](O[C@H]2C[C@@](C)(OC)[C@@H](O)[C@H](C)O2)[C@H](C)[C@@H](O[C@@H]2O[C@H](C)C[C@H](N(C)C)[C@H]2O)[C@](C)(O)C[C@@H](C)CN(C)[C@H](C)[C@@H](O)[C@]1(C)O ?
Response: 15

Query: Fill in: Tmax of C=C[C@]1(C)C[C@@H](OC(=O)CS[C@@H]2CC[C@@H](N)C[C@H]2O)[C@]2(C)[C@H](C)CC[C@]3(CCC(=O)[C@H]32)[C@@H](C)[C@@H]1O is ___
Response: 30

###

Could you please report measured AUC(0-t) for the items listed next?
assay: Pharmacokinetics in plasma and epithelial lining fluid of mice after a single SC dose; type: in vivo, BALB/c mice; conditions: female, BALB/c, mouse, epithelial lining fluid (ELF); ELF; mice; single 35 mg/kg SC; read-out: AUC0-24h, mean±SEM
For clarity, give the value followed by its unit.

Query: Name the recorded AUC(0-t) for C=C[C@]1(C)C[C@@H](OC(=O)CS[C@@H]2CC[C@@H](N)C[C@H]2O)[C@]2(C)[C@H](C)CC[C@]3(CCC(=O)[C@H]32)[C@@H](C)[C@@H]1O .
Response: 12600 ng·h/mL

Query: Entry CC[C@H]1OC(=O)[C@H](C)[C@@H](O[C@H]2C[C@@](C)(OC)[C@@H](O)[C@H](C)O2)[C@H](C)[C@@H](O[C@@H]2O[C@H](C)C[C@H](N(C)C)[C@H]2O)[C@](C)(O)C[C@@H](C)CN(C)[C@H](C)[C@@H](O)[C@]1(C)O : reported AUC(0-t) = ?
Response: 26700 ng·h/mL

###

Test: Pharmacokinetics in plasma and epithelial lining fluid of mice after a single SC dose
Format: in vivo, BALB/c mice
Conditions: female, BALB/c, mouse; plasma; mice; single 35 mg/kg SC; read-out: AUC0-24h, mean±SEM
Method: Pharmacokinetic parameters were evaluated as previously described. […] Plasma samples were analyzed by liquid chromatography with […] mass spectrometry (Q Exactive Plus; Thermo Fisher Scientific). Area under the curve (AUC) values were determined using the linear trapezoidal method.
observation_type: AUC(0-t) (ng·h/mL)
The answer is to be given in ng·h/mL; state only the numeric part.

Query: Recorded AUC(0-t) for C=C[C@]1(C)C[C@@H](OC(=O)CS[C@@H]2CC[C@@H](N)C[C@H]2O)[C@]2(C)[C@H](C)CC[C@]3(CCC(=O)[C@H]32)[C@@H](C)[C@@H]1O [Lefamulin] , please?
Response: 6250

Query: Entry under review: CC[C@H]1OC(=O)[C@H](C)[C@@H](O[C@H]2C[C@@](C)(OC)[C@@H](O)[C@H](C)O2)[C@H](C)[C@@H](O[C@@H]2O[C@H](C)C[C@H](N(C)C)[C@H]2O)[C@](C)(O)C[C@@H](C)CN(C)[C@H](C)[C@@H](O)[C@]1(C)O [Azithromycin] . Reported AUC(0-t)?
Response: 11600
